- System: NCI-H23
- Test summary: NCI tumour cell line growth inhibition, 48 h
Activity calls are given as the source filed them. Rule as the data show it: active = GI50 up to about 1.1 µM and inactive = higher.
Outcome field: choose from active, inactive

Answered cases to consult:
>>> print(df.to_string())
                                   compound  category_label
0              C=CCn1c(=O)c(C)cn(COCCO)c1=O        inactive
1  Cc1sc2nc3n(c(=O)c2c1C)N=C(c1ccc(Cl)cc1)CS3        inactive
2  COc1ccc(N(CN2C(=O)CCC2OC)C(C)=O)cc1 (stereo unspecified)        inactive
3  CCC1(c2ccccc2)C(=O)N=C(c2ccccc2)N1CCc1ccccc1 (stereo unspecified)        inactive

I'd appreciate the recorded outcome for `NNc1nncc2[nH]nnc12` from this test.
inactive

Recorded call for `COc1ccc(/C=C2/C(=O)N(C(=O)c3ccccc3O)N=C2C)cc1OC` ?
active
